The following molecules are listed with their measured pIC50 values.
- Tested On: ALK (Homo sapiens, UniProt Q9UM73)
- Construct: host or cells: baculovirus expression system
- Sequence (Q9UM73 19-1620): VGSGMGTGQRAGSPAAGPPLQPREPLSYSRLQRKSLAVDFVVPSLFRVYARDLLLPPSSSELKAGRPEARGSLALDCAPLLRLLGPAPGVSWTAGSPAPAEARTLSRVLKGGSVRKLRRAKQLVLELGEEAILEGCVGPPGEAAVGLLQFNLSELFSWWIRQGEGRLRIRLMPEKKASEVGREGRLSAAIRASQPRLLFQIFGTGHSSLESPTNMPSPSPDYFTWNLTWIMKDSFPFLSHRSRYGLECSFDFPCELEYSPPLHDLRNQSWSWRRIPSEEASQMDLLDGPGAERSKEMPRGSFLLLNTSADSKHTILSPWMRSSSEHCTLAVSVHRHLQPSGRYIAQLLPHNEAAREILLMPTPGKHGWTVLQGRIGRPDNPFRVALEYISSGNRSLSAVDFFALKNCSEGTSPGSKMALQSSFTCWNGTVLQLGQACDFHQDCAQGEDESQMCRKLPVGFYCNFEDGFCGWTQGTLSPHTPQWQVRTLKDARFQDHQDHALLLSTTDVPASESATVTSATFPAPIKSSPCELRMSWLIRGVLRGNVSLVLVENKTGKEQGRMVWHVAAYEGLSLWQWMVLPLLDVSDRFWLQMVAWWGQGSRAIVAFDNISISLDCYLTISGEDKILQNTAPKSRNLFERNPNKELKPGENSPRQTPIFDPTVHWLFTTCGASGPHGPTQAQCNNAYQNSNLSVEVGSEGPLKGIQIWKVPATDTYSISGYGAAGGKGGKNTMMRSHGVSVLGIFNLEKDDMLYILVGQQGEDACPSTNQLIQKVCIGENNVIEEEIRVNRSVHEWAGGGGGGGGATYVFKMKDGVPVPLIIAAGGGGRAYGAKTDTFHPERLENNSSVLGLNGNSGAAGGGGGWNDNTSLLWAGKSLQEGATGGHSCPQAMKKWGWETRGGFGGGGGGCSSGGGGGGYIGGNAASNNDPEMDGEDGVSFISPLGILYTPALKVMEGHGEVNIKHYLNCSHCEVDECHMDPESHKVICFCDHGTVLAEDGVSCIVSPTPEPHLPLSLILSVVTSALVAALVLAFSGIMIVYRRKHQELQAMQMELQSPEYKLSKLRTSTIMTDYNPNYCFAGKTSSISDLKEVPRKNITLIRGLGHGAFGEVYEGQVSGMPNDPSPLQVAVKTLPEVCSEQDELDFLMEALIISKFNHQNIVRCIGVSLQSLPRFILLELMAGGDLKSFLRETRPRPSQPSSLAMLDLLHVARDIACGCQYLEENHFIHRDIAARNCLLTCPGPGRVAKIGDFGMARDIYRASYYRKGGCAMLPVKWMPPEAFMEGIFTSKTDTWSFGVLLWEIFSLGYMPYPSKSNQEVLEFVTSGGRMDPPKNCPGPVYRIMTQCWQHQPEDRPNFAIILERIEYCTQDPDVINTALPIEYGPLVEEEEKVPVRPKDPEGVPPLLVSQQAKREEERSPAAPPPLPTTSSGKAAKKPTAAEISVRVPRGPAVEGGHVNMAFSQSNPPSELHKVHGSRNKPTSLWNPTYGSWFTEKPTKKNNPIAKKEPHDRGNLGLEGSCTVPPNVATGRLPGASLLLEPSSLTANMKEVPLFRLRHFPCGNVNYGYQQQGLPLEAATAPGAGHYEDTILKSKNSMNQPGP
- Protocol Description: ALK Kinase Assay (ELISA/TRF, PLC-γ substrate)
- Assay type: biochemical
- Condition: ALK kinase inhibition, 1 μM ATP; read-out: ALK Potency
pIC50: −log10 of the molar value.

Record excerpt, results attached:
Enquiry: // returns reported pIC50 for input CS(=O)(=O)Nc1cccc(-c2ccc3cnc(Nc4ccc(N5CCC(N6CCOCC6)CC5)cc4)nn23)c1
Return: 6.00 to 7.00

Enquiry: // returns reported pIC50 for input CN(c1cccc(-c2ccc3cnc(Nc4ccc(C5CCN(CCO)CC5)cc4)nn23)c1)S(C)(=O)=O
Return: 6.00 to 7.00

Enquiry: // returns reported pIC50 for input CN(c1ccccc1-c1ccc2cnc(Nc3ccncc3)nn12)S(C)(=O)=O
Return: 5.00 to 6.00

---
Enquiry: // returns reported pIC50 for input COc1cc2c(cc1Nc1ncc3ccc(-c4ccccc4OC)n3n1)CN(C1COC1)C2
Return: > 7.00
